Test system: CS0005
TEST_METHOD_NOTES: Cell Assay: CS0005
Assay type: cell-based
SETTINGS: cell assay code CS0005
MEASURED_PROPERTY: Cell Assay: CS0005:IC50

The cases that follow already have their Cell Assay: CS0005:IC50 on record.
> print(dat)
                                        smi        measured.property  recorded.value
1  CC(C)(C)c1cc(NC(=O)Nc2ccc(CCc3ccc(N)cc3)cc2)no1  Cell Assay: CS0005:IC50         + + + +
2  CC(C)(C)c1cc(NC(=O)Nc2ccc(OCc3cccc(F)c3)cc2)no1  Cell Assay: CS0005:IC50           + + +
3  Cn1nc(-c2ccccc2)c2cc(C(=O)Nc3ccc(NC(=O)Nc4cc(C(C)(C)C)on4)cc3)sc21  Cell Assay: CS0005:IC50         + + + +
4  CC(C)(C)c1cc(NC(=O)Nc2ccc(NC(=O)c3cc4cc(Br)ccc4s3)cc2)no1  Cell Assay: CS0005:IC50         + + + +
5  CC(C)(C)c1cc(NC(=O)Nc2ccc(OCCc3ccncc3)cc2)no1  Cell Assay: CS0005:IC50         + + + +

// next entry
Look up Cell Assay: CS0005:IC50 with CS0005 for this molecule: CC(C)(C)c1cc(NC(=O)Nc2ccc(NC(=O)c3ccc4sccc4c3)cc2)no1
+ + + +

====

System: MV4,11 cells
TEST_METHOD_NOTES: FLT3 assay using MV4,11 cells (cellular proliferation, MTS)
Type: cell-based, human
SETTINGS: cell assay code CS0001
MEASURED_PROPERTY: Cell Assay: CS0001:IC50

Some entries whose results are on file:
> print(dat)
                                   compound  subject.of.test        measured.property  recorded.value
1  CC(C)(C)c1cc(NC(=O)Nc2ccc(OCc3cccc(Cl)c3)cc2)no1 [Compound G11]     MV4,11 cells  Cell Assay: CS0001:IC50         + + + +
2  CC(C)(C)c1cc(NC(=O)Nc2ccc(OCc3ccccc3F)cc2)no1 [Compound G12]     MV4,11 cells  Cell Assay: CS0001:IC50         + + + +
3  CC(C)(C)c1cc(NC(=O)Nc2ccc(NC(=O)c3cc(N4CCOCC4)nc(N4CCOCC4)n3)cc2)no1 [Compound N54]     MV4,11 cells  Cell Assay: CS0001:IC50         + + + +
4  CC(C)(C)c1cc(NC(=O)Nc2ccc(NC(=O)Cc3sc(-c4ccc(Cl)cc4)nc3-c3ccccc3)cc2)no1 [Compound N66]     MV4,11 cells  Cell Assay: CS0001:IC50           + + +
5  CC(C)(C)c1cc(NC(=O)Nc2ccc(NC(=O)c3ncccc3C(N)=O)cc2)no1 [Compound N6]     MV4,11 cells  Cell Assay: CS0001:IC50             + +

Here is the next item to consider.
Entry CC(C)(C)c1cc(NC(=O)Nc2ccc(NC(=O)c3ccccc3)cc2)no1 [Compound N34] has what Cell Assay: CS0001:IC50?
+ + + +

====

SUBJECT_OF_TEST: FLT3 (Homo sapiens, UniProt P36888)
Construct: FLT3(DKIN); made in house
Sequence (P36888 610-943 limits assumed): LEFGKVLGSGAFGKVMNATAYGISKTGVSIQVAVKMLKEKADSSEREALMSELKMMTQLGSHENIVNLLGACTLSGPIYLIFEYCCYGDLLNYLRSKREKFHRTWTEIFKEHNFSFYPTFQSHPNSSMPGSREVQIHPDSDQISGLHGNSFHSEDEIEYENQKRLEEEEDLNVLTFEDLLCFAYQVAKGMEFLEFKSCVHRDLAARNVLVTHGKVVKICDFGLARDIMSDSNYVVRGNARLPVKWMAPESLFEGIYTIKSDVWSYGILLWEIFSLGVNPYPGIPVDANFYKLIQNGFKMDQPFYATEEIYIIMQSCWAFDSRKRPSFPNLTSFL
TEST_METHOD_NOTES: Binding constant (Kd) measurement, phage-displayed kinase competition binding assay
SETTINGS: FLT3(DKIN) construct
MEASURED_PROPERTY: Binding Assay: FLT3(DKIN)

Record excerpt, results attached:
> print(dat)
                                   compound  recorded.value
1  O=C(Nc1ccc(Cl)cc1)Nc1cc(C2CC2)nn1-c1ccccc1 [Compound D10]           + + +
2  Cc1ccc(-n2nc(C(C)(C)C)cc2NC(=O)Nc2cc(C(C)(C)C)on2)cc1 [Compound H11]         + + + +
3  CC(C)(C)c1cc(NC(=O)Nc2ccc(NC(=O)c3cnnc4ccccc34)cc2)no1 [Compound N147]         + + + +
4  CC(C)(C)c1cc(NC(=O)Nc2ccc(-c3nc(-c4cccc5ccccc45)no3)cc2)no1 [Compound P5]         + + + +

Could you share which Binding Assay: FLT3(DKIN) value was measured for CC(C)(C)c1cc(NC(=O)Nc2ccc(-c3ccccc3)cc2)no1 [Compound A23] ?
+ + + +

Look up Binding Assay: FLT3(DKIN): CC(C)(C)c1cc(NC(=O)Nc2ccc(Oc3ccccc3)cc2)no1 [Compound A24]
+ + + +

Form field: reported Binding Assay: FLT3(DKIN) of CC(C)(C)c1cc(NC(=O)Nc2cc(C(C)(C)C)on2)on1 [Compound A54]
+ + +

Item under review: CC(C)(C)c1cc(NC(=O)Nc2ccc(NC(=O)c3c(F)cccc3C(F)(F)F)cc2)no1 [Compound N95] . Reported Binding Assay: FLT3(DKIN)?
+ + +

Param item = CC(C)(C)c1cc(NC(=O)Nc2ccc(OCCN3CCOCC3)cc2)no1 [Compound G40] ; retrieve measured Binding Assay: FLT3(DKIN).
+ + +

====

Test system: MV4,11 cells
TEST_METHOD_NOTES: FLT3 assay using MV4,11 cells (cellular proliferation, MTS)
Format: cell-based, human
SETTINGS: cell assay code CS0001
MEASURED_PROPERTY: Cell Assay: CS0001:IC50

> print(dat)
                                   compound  subject.of.test        measured.property  recorded.value
1  CC(C)(C)OC(=O)Nc1ccc(NC(=O)Nc2cc(C(C)(C)C)on2)cc1     MV4,11 cells  Cell Assay: CS0001:IC50           + + +
2  COc1cc(OC)nc(Sc2ccccc2C(=O)Nc2ccc(NC(=O)Nc3cc(C(C)(C)C)on3)cc2)n1     MV4,11 cells  Cell Assay: CS0001:IC50           + + +
3  CC1CN(CCOc2ccc(NC(=O)Nc3cc(C(C)(C)C)on3)cc2)CC(C)O1 (centres unmarked)     MV4,11 cells  Cell Assay: CS0001:IC50             + +
4  Cc1nc(C(=O)Nc2ccc(NC(=O)Nc3cc(C(C)(C)C)on3)cc2)nn1-c1cc(Cl)cc(Cl)c1     MV4,11 cells  Cell Assay: CS0001:IC50             + +

// below: Cell Assay: CS0001:IC50 requested for another compound
Item: CC(C)(C)c1cc(NC(=O)Nc2ccc(NC(=O)c3c(F)cccc3F)cc2)no1 Test system: MV4,11 cells Read-out: Cell Assay: CS0001:IC50 Value: ?
+ +

====

SUBJECT_OF_TEST: FLT3 (Homo sapiens, UniProt P36888)
Construct: FLT3(DKIN); made in house
TEST_METHOD_NOTES: Binding constant (Kd) measurement, phage-displayed kinase competition binding assay
SETTINGS: FLT3(DKIN) construct
MEASURED_PROPERTY: Binding Assay: FLT3(DKIN)

Sample answers from the record:
> print(dat)
                                   compound          measured.property  recorded.value
1  Cc1cc(C)nc(N(C)c2ccc(C(=O)Nc3ccc(NC(=O)Nc4cc(C(C)(C)C)on4)cc3)cc2)n1  Binding Assay: FLT3(DKIN)         + + + +
2  CC(C)(C)c1cc(NC(=O)Nc2ccc(CC(=O)O)cc2)no1  Binding Assay: FLT3(DKIN)             + +
3  COC(=O)c1ccc(C(=O)Nc2ccc(NC(=O)Nc3cc(C(C)(C)C)on3)cc2)nc1 [Compound N113]  Binding Assay: FLT3(DKIN)         + + + +
4  Cc1ncccc1C(=O)Nc1ccc(NC(=O)Nc2cc(C(C)(C)C)on2)cc1  Binding Assay: FLT3(DKIN)         + + + +
5  CC(C)(C)c1cc(NC(=O)Nc2ccc(OCc3ccc(F)cc3)cc2)no1  Binding Assay: FLT3(DKIN)         + + + +

Consider the additional compound presented here.
Can you share its Binding Assay: FLT3(DKIN)? I mean this compound: CC(C)(C)c1cc(NC(=O)Nc2ccc(CCc3ccccc3)cc2)no1
+ + + +
